- system-name: T1, recombinant human Trop-2-his protein (ACCESSION NO.: NP_002344.2, AA 1-274) (human, UniProt P09758 27-274)
- T1 construct: range 27-274; also called recombinant human Trop-2 protein; recombinant human Trop-2 extracellular domain; not shown: his tag
- T1 sequence (looked up): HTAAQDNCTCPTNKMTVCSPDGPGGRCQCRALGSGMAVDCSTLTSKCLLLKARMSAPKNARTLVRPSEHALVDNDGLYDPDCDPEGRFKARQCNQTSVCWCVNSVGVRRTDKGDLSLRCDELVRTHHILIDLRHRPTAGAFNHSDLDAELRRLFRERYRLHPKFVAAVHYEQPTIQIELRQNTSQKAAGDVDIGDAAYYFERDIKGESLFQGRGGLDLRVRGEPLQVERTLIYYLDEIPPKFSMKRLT
- experiment-description: BLI, antibody on AHC sensor, Trop-2-his 60 nM
value-type: Kd
Answer format: number, then unit.

binder="chimeric antibody ch11-4 (antibody, human IgG1, V domains shown) VH: QVQLQQPGAELVRPGASVNLSCKASGYTFTSYWINWVKQRPGQGLEWIGNIYPSNSYTNYNQKFKDTATLTVDKSSSTAYMQLSSPTSEDSAVYFCSSYRSDGFAYWGQGTLVTVSA VL: DILLTQSPAILSVSPGEKVSFSCRASQNIGTSIHWYQQRTNGSPRLLIEFASESISGIPSRFSGSGSGTDFTLTINSVESEDIADYYCQQSNSWPFTFGGGTKLEIK" recorded_result="264 pM"

Input line: Would you mind telling me what Kd value was observed for h11-4-2 (antibody, human IgG1, kappa, V domains shown) VH: QVQLVQSGAEVKKPGASVKVSCKASGYTFTSYWINWVRQAPGQGLEWMGNIYPSNSYTNYNQKFKDRVTMTRDTSTSTVYMELSSLRSEDTAVYYCSRYRSDGFAYWGQGTLVTVSS VL: EIVLTQSPATLSLSPGERATLSCRASQNIGTSIHWYQQKPGQAPRLLIYFASESISGIPARFSGSGSGTDFTLTISSLEPEDFAVYYCQQSNSWPFTFGGGTKVEIKR ?
Output line: 991 pM
